Tested on: Human monocytic lymphoma (U937) cells
Type: cell-based
Experimental: Human monocytic lymphoma (U937) cells are cultured in RPMI-1640 medium. All culture media are supplemented with 5-10% v/v fetal calf serum, 100 U/ml of penicillin, and 100 μg/ml of streptomycin. Cell lines are cultured at 37° C. in a humidified atmosphere containing 5% v/v CO2. […] Samples are then analyzed immediately using the BD FACSCanto II Flow Cytometer and BD FACSDiva software v6.1.1. The resultant flow cytometry data is analyzed using FlowJo software v8.8.6. […]
measured_parameter: U937 cells permeabilized (PI-positive) (%)
Response body: numeric value in %, unit text excluded.

Solved entries:
HXL004: Class I plant defensin from Nicotiana benthamiana, SEQ ID NO: 7 (RTCESQSHRFKGLCFSRSNCASVCHTEGFNGGHCRGFRRRCFCTRHC; HXL004 Nicotiana benthamiana) ... 13
HXP4: Artificial defensin variant, Loop1B of a Class I defensin replaces that of the Solanaceous Class II defensin, SEQ ID NO: 21 (RECKTESHRFKGPCITKPPCRKACISEKFTDGHCSKILRRCLCTKPC; HXP4) ... 13

Pending substance:
Query: Supply U937 cells permeabilized (PI-positive) value. Item: HXL013: Class I plant defensin from Glycine max, SEQ ID NO: 11 (KDCLTRRHGFQGRCLFDRQCAHVCRSDGFIGGQCRGPLRKCFCSRPC; HXL013 Glycine max)
Reply: 5
